Molecular target: NEDD8 activating enzyme (Homo sapiens, UniProt Q8TBC4)
Sequence (Q8TBC4 whole entry): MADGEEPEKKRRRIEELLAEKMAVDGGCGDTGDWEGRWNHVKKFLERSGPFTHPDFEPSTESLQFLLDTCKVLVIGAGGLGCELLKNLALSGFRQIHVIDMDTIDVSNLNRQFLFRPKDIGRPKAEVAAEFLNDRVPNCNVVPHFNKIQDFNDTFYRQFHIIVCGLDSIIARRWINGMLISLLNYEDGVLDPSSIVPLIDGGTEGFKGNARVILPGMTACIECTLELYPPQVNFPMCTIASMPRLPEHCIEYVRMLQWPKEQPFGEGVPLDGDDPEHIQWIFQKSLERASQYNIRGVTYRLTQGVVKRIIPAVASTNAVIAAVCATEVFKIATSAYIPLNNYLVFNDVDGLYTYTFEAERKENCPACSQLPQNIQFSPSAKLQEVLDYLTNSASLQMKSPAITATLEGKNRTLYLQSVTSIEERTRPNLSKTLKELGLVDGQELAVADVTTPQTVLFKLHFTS
Sequence (Q13564 whole entry): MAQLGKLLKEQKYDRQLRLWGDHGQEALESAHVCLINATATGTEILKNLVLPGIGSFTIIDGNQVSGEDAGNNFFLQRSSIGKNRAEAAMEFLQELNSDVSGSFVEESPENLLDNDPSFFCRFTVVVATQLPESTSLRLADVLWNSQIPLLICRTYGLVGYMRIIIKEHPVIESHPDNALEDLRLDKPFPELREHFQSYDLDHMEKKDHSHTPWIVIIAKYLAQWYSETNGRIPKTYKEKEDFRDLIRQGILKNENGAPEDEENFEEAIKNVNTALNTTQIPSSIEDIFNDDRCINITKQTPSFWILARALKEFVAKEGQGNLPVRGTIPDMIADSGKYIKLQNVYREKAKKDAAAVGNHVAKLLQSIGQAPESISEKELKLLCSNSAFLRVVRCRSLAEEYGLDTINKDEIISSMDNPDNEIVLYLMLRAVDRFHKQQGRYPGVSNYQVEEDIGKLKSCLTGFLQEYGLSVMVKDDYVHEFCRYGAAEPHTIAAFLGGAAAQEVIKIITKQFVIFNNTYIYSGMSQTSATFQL
Assay: Inhibition of NAE (unknown origin) mediated neddylation assessed as decrease in NEDD8-Ubcl2 adduct formation incubated for 2 hrs in presence of L-glutathione and ATP by HTRF assay
Assay type: protein-complex assay
endpointLabel: IC50 (nM)

These recorded examples may help you get a feel for the data.
>>> quantitativeresult("NS(=O)(=O)OC[C@@H]1C[C@@H](n2nnc3c(N[C@H]4CC5(CCN(C(=O)OCCF)CC5)c5ccccc54)ncnc32)C[C@@H]1O")
6
>>> quantitativeresult("NS(=O)(=O)OC[C@@H]1C[C@@H](n2nnc3c(N[C@H]4CC5(CCN(C(=O)OCCN6CCOCC6)CC5)c5ccccc54)ncnc32)C[C@@H]1O")
9.98

[I] CC(C)(C)OC(=O)N1CCC2(CC1)C[C@H](Nc1ncnc3c1nnn3[C@@H]1C[C@@H](COS(N)(=O)=O)[C@@H](O)C1)c1ccccc12
[II] NS(=O)(=O)OC[C@@H]1C[C@@H](n2nnc3c(NCc4cccs4)ncnc32)C[C@@H]1O
Q. Between these two entries, I and II , state which has the higher IC50. Refer to your chosen entry by its label in the reply.
A. II
(II: 15.9 nM, I: 9.76 nM)
